- System: EJM (Plasma Cell Myeloma)
- procedure details: combination Emax (second highest fraction inhibited in the dose matrix, 72 h); higher = more inhibition; extreme values may be limits of the assay
Could you please report measured combination Emax for the items listed next?
The reply should be a number, written without any unit.

Entry under test: CCN(CCO)CCCOc1ccc2c(Nc3cc(CC(=O)Nc4cccc(F)c4)[nH]n3)ncnc2c1 [AZD2811] + C=CCn1c(=O)c2cnc(Nc3ccc(N4CCN(C)CC4)cc3)nc2n1-c1cccc(C(C)(C)O)n1 [AZD1775] (first compound max 1 µM, partner max 1 µM) . Its combination Emax was 0.875

Entry under test: Cc1c2c(nn1C)CSCc1cc(n(C)n1)CSc1cc(c3ccccc3c1)OCCCc1c(C(=O)O)n(C)c3c-2c(Cl)ccc13 [AZD5991] + Cn1cnc2c(F)c(Nc3ccc(Br)cc3Cl)c(C(=O)NOCCO)cc21 [Selumetinib] (first compound max 1 µM, 7x7, partner max 3 µM) . Its combination Emax was 0.983

Entry under test: NC1(C(=O)N[C@@H](CCO)c2ccc(Cl)cc2)CCN(c2ncnc3[nH]ccc23)CC1 [Capivasertib] + CC(C)n1c(=O)n(C)c2cnc3cc(F)c(-c4ccc(OCCCN5CCCCC5)nc4)cc3c21 [AZD1390] (first compound max 10 µM, 7x7, partner max 0.3 µM) . Its combination Emax was 0.292

Entry under test: CC1(C)CCC(CN2CCN(c3ccc(C(=O)NS(=O)(=O)c4ccc(NCC5CCOCC5)c([N+](=O)[O-])c4)c(Oc4cnc5[nH]ccc5c4)c3)CC2)=C(c2ccc(Cl)cc2)C1 [Venetoclax] + C[C@@H]1COCCN1C2=NC(=NC(=C2)C3(CC3)[S@](=N)(=O)C)C4=C5C=CNC5=NC=C4 [AZD6738] (first compound max 1 µM, 7x7, partner max 10 µM) . Its combination Emax was 0.869

----------
- Test system: NCI-H2122 (Lung Adenocarcinoma)
- procedure details: combination Emax (second highest fraction inhibited in the dose matrix, 72 h); higher = more inhibition; extreme values may be limits of the assay
Could you please report measured combination Emax for the items listed next?
The reply should be a number, written without any unit.

// assay NCI-H2122 (Lung Adenocarcinoma), entry CN(CCO)CC[C@H](CSc1ccccc1)Nc1ccc(S(=O)(=O)NC(=O)c2ccc(N3CCC([C@@H](O)c4ccccc4-c4ccc(Cl)cc4)CC3)cc2)cc1S(=O)(=O)C(F)(F)F [AZD4320] + Cn1cnc2c(F)c(Nc3ccc(Br)cc3Cl)c(C(=O)NOCCO)cc21 [Selumetinib] (first compound max 1 µM, 7x7, partner max 3 µM) , combination Emax value = 0.8

// assay NCI-H2122 (Lung Adenocarcinoma), entry COc1cc2ncnc(Nc3ccc(F)c(Cl)c3)c2cc1OCCCN1CCOCC1 [Gefitinib] + CC(C)n1c(=O)n(C)c2cnc3cc(F)c(-c4ccc(OCCCN5CCCCC5)nc4)cc3c21 [AZD1390] (first compound max 10 µM, 7x7, partner max 0.3 µM) , combination Emax value = 0.626

// assay NCI-H2122 (Lung Adenocarcinoma), entry CCN(CCO)CCCOc1ccc2c(Nc3cc(CC(=O)Nc4cccc(F)c4)[nH]n3)ncnc2c1 [AZD2811] + C[C@@H]1COCCN1C2=NC(=NC(=C2)C3(CC3)[S@](=N)(=O)C)C4=C5C=CNC5=NC=C4 [AZD6738] (first compound max 1 µM, 7x7, partner max 10 µM) , combination Emax value = 0.902

// assay NCI-H2122 (Lung Adenocarcinoma), entry CC1(C)CCC(CN2CCN(c3ccc(C(=O)NS(=O)(=O)c4ccc(NCC5CCOCC5)c([N+](=O)[O-])c4)c(Oc4cnc5[nH]ccc5c4)c3)CC2)=C(c2ccc(Cl)cc2)C1 [Venetoclax] + CN(C)CCCOc1ccc(-c2ccc3ncc4c(c3c2)n(C2CCOCC2)c(=O)n4C)cn1 [AZD0156] (first compound max 1 µM, 7x7, partner max 1 µM) , combination Emax value = 0.212

// assay NCI-H2122 (Lung Adenocarcinoma), entry CC1(C)CCC(CN2CCN(c3ccc(C(=O)NS(=O)(=O)c4ccc(NCC5CCOCC5)c([N+](=O)[O-])c4)c(Oc4cnc5[nH]ccc5c4)c3)CC2)=C(c2ccc(Cl)cc2)C1 [Venetoclax] + C[C@@H]1COCCN1C2=NC(=NC(=C2)C3(CC3)[S@](=N)(=O)C)C4=C5C=CNC5=NC=C4 [AZD6738] (first compound max 1 µM, 7x7, partner max 10 µM) , combination Emax value = 0.947

// assay NCI-H2122 (Lung Adenocarcinoma), entry C=CCn1c(=O)c2cnc(Nc3ccc(N4CCN(C)CC4)cc3)nc2n1-c1cccc(C(C)(C)O)n1 [AZD1775] + C[C@@H]1COCCN1C2=NC(=NC(=C2)C3(CC3)[S@](=N)(=O)C)C4=C5C=CNC5=NC=C4 [AZD6738] (first compound max 1 µM, partner max 10 µM) , combination Emax value = 0.961

// assay NCI-H2122 (Lung Adenocarcinoma), entry Cc1cc2ncnn2cc1Nc1ncc2c(n1)n(C1CCOCC1)c(=O)n2C [AZD7648] + CCN(CCO)CCCOc1ccc2c(Nc3cc(CC(=O)Nc4cccc(F)c4)[nH]n3)ncnc2c1 [AZD2811] (first compound max 10 µM, 7x7, partner max 1 µM) , combination Emax value = 0.355

// assay NCI-H2122 (Lung Adenocarcinoma), entry CN(C)CCCOc1ccc(-c2ccc3ncc4c(c3c2)n(C2CCOCC2)c(=O)n4C)cn1 [AZD0156] + C[C@@H]1COCCN1C2=NC(=NC(=C2)C3(CC3)[S@](=N)(=O)C)C4=C5C=CNC5=NC=C4 [AZD6738] (first compound max 1 µM, 7x7, partner max 10 µM) , combination Emax value = 0.945

// assay NCI-H2122 (Lung Adenocarcinoma), entry CC(=O)c1c(C)c2cnc(Nc3ccc(N4CCNCC4)cn3)nc2n(C2CCCC2)c1=O [Palbociclib] + CC1(C)CCC(CN2CCN(c3ccc(C(=O)NS(=O)(=O)c4ccc(NCC5CCOCC5)c([N+](=O)[O-])c4)c(Oc4cnc5[nH]ccc5c4)c3)CC2)=C(c2ccc(Cl)cc2)C1 [Venetoclax] (first compound max 10 µM, 7x7, partner max 1 µM) , combination Emax value = 0.688

// assay NCI-H2122 (Lung Adenocarcinoma), entry CC1(C)CCC(CN2CCN(c3ccc(C(=O)NS(=O)(=O)c4ccc(NCC5CCOCC5)c([N+](=O)[O-])c4)c(Oc4cnc5[nH]ccc5c4)c3)CC2)=C(c2ccc(Cl)cc2)C1 [Venetoclax] + CCN(CCO)CCCOc1ccc2c(Nc3cc(CC(=O)Nc4cccc(F)c4)[nH]n3)ncnc2c1 [AZD2811] (first compound max 1 µM, 7x7, partner max 1 µM) , combination Emax value = 0.702

// assay NCI-H2122 (Lung Adenocarcinoma), entry CC(=O)c1c(C)c2cnc(Nc3ccc(N4CCNCC4)cn3)nc2n(C2CCCC2)c1=O [Palbociclib] + Cn1cnc2c(F)c(Nc3ccc(Br)cc3Cl)c(C(=O)NOCCO)cc21 [Selumetinib] (first compound max 10 µM, 7x7, partner max 10 µM) , combination Emax value = 0.954

// assay NCI-H2122 (Lung Adenocarcinoma), entry Cc1cc2ncnn2cc1Nc1ncc2c(n1)n(C1CCOCC1)c(=O)n2C [AZD7648] + CN(C)CCCOc1ccc(-c2ccc3ncc4c(c3c2)n(C2CCOCC2)c(=O)n4C)cn1 [AZD0156] (first compound max 10 µM, 7x7, partner max 1 µM) , combination Emax value = 0.253

----------
- Test system: MDA-MB-453 (Breast Carcinoma)
- procedure details: combination Emax (second highest fraction inhibited in the dose matrix, 72 h); higher = more inhibition; extreme values may be limits of the assay
Could you please report measured combination Emax for the items listed next?
The reply should be a number, written without any unit.

Entry under test: CC1(C)CCC(CN2CCN(c3ccc(C(=O)NS(=O)(=O)c4ccc(NCC5CCOCC5)c([N+](=O)[O-])c4)c(Oc4cnc5[nH]ccc5c4)c3)CC2)=C(c2ccc(Cl)cc2)C1 [Venetoclax] + Cn1cnc2c(F)c(Nc3ccc(Br)cc3Cl)c(C(=O)NOCCO)cc21 [Selumetinib] (first compound max 1 µM, 7x7, partner max 3 µM) . Its combination Emax was 0.15

Entry under test: CC1(C)CCC(CN2CCN(c3ccc(C(=O)NS(=O)(=O)c4ccc(NCC5CCOCC5)c([N+](=O)[O-])c4)c(Oc4cnc5[nH]ccc5c4)c3)CC2)=C(c2ccc(Cl)cc2)C1 [Venetoclax] + C[C@@H]1COCCN1C2=NC(=NC(=C2)C3(CC3)[S@](=N)(=O)C)C4=C5C=CNC5=NC=C4 [AZD6738] (first compound max 1 µM, 7x7, partner max 10 µM) . Its combination Emax was 0.761

Entry under test: CN(CCO)CC[C@H](CSc1ccccc1)Nc1ccc(S(=O)(=O)NC(=O)c2ccc(N3CCC([C@@H](O)c4ccccc4-c4ccc(Cl)cc4)CC3)cc2)cc1S(=O)(=O)C(F)(F)F [AZD4320] + CN(C)CCCOc1ccc(-c2ccc3ncc4c(c3c2)n(C2CCOCC2)c(=O)n4C)cn1 [AZD0156] (first compound max 1 µM, 7x7, partner max 1 µM) . Its combination Emax was 0.175

Entry under test: CN(CCO)CC[C@H](CSc1ccccc1)Nc1ccc(S(=O)(=O)NC(=O)c2ccc(N3CCC([C@@H](O)c4ccccc4-c4ccc(Cl)cc4)CC3)cc2)cc1S(=O)(=O)C(F)(F)F [AZD4320] + C1CN(CCC1(C(=O)N[C@@H](CCO)C2=CC=C(C=C2)Cl)N)C3=NC=NC4=C3C=CN4 [Capivasertib] (first compound max 1 µM, 7x7, partner max 3 µM) . Its combination Emax was 0.596

Entry under test: COc1nnc2ccc(N3CCC(c4ccc(OCCN5CCN(C)C(=O)[C@H]5C)cc4)CC3)nn12 [AZD5153] + Cn1cnc2c(F)c(Nc3ccc(Br)cc3Cl)c(C(=O)NOCCO)cc21 [Selumetinib] (first compound max 1 µM, 7x7, partner max 10 µM) . Its combination Emax was 0.614

Entry under test: CCc1c2c(nc3ccc(O)cc13)-c1cc3c(c(=O)n1C2)COC(=O)[C@]3(O)CC [SN-38] + O=C(c1cc(Cc2n[nH]c(=O)c3ccccc23)ccc1F)N1CCN(C(=O)C2CC2)CC1 [Olaparib] (first compound max 0.3 µM, 7x7, partner max 10 µM) . Its combination Emax was 0.746

Entry under test: CC(=O)c1c(C)c2cnc(Nc3ccc(N4CCNCC4)cn3)nc2n(C2CCCC2)c1=O [Palbociclib] + Cn1cnc2c(F)c(Nc3ccc(Br)cc3Cl)c(C(=O)NOCCO)cc21 [Selumetinib] (first compound max 10 µM, 7x7, partner max 10 µM) . Its combination Emax was 0.241
